Entries and their Mite Eggs Control, % values follow.
Tested on: mite eggs (Tetramuchus urticae)
Assay: Mite control test, mite eggs
Assay type: in vivo
Details: 40-ppm leaf dip, egg mortality (non-hatching eggs) 7 days after treatment
Use % as the unit, but write only the number.

Consider the reported Mite Eggs Control, % for these molecules:
sample_smiles=Cc1ccc(N=c2ssnc2Cl)c(C)c1 parameter="Mite Eggs Control, %" experimental_value=30
sample_smiles=Clc1ccccc1N=c1ssnc1Cl parameter="Mite Eggs Control, %" experimental_value=0
sample_smiles=Clc1cc(Cl)cc(N=c2ssnc2Cl)c1 parameter="Mite Eggs Control, %" experimental_value=85

Any idea what its Mite Eggs Control, % is? The molecule is Clc1ccc(N=c2ssnc2Cl)c(Cl)c1 0

Try this molecule too: Cc1ccc(Cl)cc1N=c1ssnc1Cl 85

Then what about the molecule Clc1ccc(N=c2ssnc2Cl)cc1Cl ? 100

Same read-out for Cc1cc(Cl)ccc1N=c1ssnc1Cl ? 100

What about Clc1nssc1=Nc1cccc(Br)c1 ? 78

Same question for Fc1ccccc1N=c1ssnc1Cl please. 39

Moving on to O=[N+]([O-])c1ccc(Oc2ccc(N=c3ssnc3Cl)cc2)cc1 78

Please give the result for Cc1c(Cl)cccc1N=c1ssnc1Cl too. 99
